Attribution: paper PMC9604255

System: PC-3 cancer cells
Experiment: MTT antiproliferative assay, PC-3
Type: cell-based, human
Conditions: Homo sapiens; MTT assay after 48 h
Assay Endpoint: IC50 (µM)

Record excerpt, results attached:
query: Using the record for `COc1cccc(/C=C/C(=O)NNC(=O)/C=C/c2ccc([N+](=O)[O-])cc2)c1` , report its IC50.
result: 4.17

query: Using the record for `O=C(/C=C/c1ccccc1)NNC(=O)/C=C/c1cccs1` , report its IC50.
result: 15.9

(1) Cc1ncsc1/C=C/C(=O)NNC(=O)/C=C/c1ccccc1
(2) O=C(/C=C/c1ccccc1)NNC(=O)/C=C/c1ccc(Cl)cc1
query: // compare: 1 vs 2 , metric IC50, want the smaller Write down the label of the entry you select.
result: 2

(I) O=C(/C=C/c1ccccc1)NNC(=O)/C=C/C1CC1
(II) CC(C)c1ccc(/C=C/C(=O)NNC(=O)/C=C/c2ccccc2)cc1
(III) O=C(/C=C/c1ccccc1)NNC(=O)/C=C/c1ccc(F)cc1
(IV) O=C(/C=C/c1ccccc1)NNC(=O)/C=C/c1ccco1
query: Sort by IC50, descending. // rank by listing labels in the order requested
result: I, IV, II, III

(P) COc1ccc(/C=C/C(=O)NNC(=O)/C=C/c2ccc([N+](=O)[O-])cc2)cc1
(Q) COc1ccc(/C=C/C(=O)NNC(=O)/C=C/c2ccccc2)cc1
(R) O=C(/C=C/c1ccccc1)NNC(=O)/C=C/c1ccccc1
query: Sort by IC50, descending. // rank by listing labels in the order requested
result: Q, P, R

(P) COc1cccc(/C=C/C(=O)NNC(=O)/C=C/c2cccc(OC)c2)c1
(Q) O=C(/C=C/c1ccccc1)NNC(=O)/C=C/c1cccc(O)c1
query: Pick the one with the larger IC50: P vs Q Write down the label of the entry you select.
result: P
(P: 21 µM, Q: 6.68 µM)

(A) O=C(/C=C/c1ccccc1)NNC(=O)/C=C/C1CC=CCC1 (centres unmarked)
(B) CN(C)c1ccc(/C=C/C(=O)NNC(=O)/C=C/c2ccccc2)cc1
query: // compare: A vs B , metric IC50, want the smaller Write down the label of the entry you select.
result: B
